# pIC50 per record follows
# Test system: phosphorylation level of intracellular protein kinase (ERK) in MOLM13 cells
# experiment: Phosphorylated protein kinase (p-ERK) cell experiment (AlphaLISA)
# Type: cell-based
# particulars: p-ERK, MOLM13 cells, 2 hours of cell treatment, Tables 2.1 and 2.2; read-out: IC50
pIC50: −log10 of the molar value.

- compound: "N[C@@H]1CCCC12CCN(c1ncc(Sc3cccc(NC(=O)c4c(O)nc5n(c4=O)CCCC5)c3Cl)c3nccn13)CC2"
  recorded_endpoint: "pIC50"
  assay_value: "> 7.00"

What does the data say about its pIC50? Entry: CC1C[C@@H](N)C2(CCN(c3ncc(Sc4cccc(Cl)c4Cl)c4nncn34)CC2)C1 (some centres unmarked)
> 7.00

====

# study_target: SHP2^E76A protein (Homo sapiens (Human), UniProt Q06124, E76A)
# Sequence (Q06124 whole entry E76A): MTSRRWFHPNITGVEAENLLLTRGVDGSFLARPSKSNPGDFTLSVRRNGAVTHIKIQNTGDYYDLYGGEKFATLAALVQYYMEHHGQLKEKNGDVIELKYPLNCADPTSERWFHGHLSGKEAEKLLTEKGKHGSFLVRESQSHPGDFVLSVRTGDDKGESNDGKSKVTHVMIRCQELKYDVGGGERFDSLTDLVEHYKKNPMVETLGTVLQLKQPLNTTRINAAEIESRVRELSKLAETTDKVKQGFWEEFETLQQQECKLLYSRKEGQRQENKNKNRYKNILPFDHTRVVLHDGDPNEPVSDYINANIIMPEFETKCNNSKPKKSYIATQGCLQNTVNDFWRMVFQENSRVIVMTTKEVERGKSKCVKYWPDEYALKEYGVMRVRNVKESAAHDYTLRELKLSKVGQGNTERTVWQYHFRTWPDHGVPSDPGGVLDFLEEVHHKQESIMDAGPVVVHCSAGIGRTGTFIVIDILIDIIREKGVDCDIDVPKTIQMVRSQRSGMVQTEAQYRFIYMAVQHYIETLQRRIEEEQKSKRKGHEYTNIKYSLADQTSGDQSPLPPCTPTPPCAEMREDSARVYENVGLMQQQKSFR
# experiment: SHP2 enzyme activity inhibition experiment
# Type: biochemical
# particulars: SHP2 enzyme activity, Tables 1.1 and 1.2; read-out: IC50
pIC50: −log10 of the molar value.
recorded_endpoint: pIC50

The cases that follow already have their pIC50 on record.
- structure_string: "Cc1ncccc1Sc1cnc(N2CCC3(CCC[C@H]3N)CC2)n2cnnc12"
  recorded_endpoint: "pIC50"
  assay_value: "6.00 to 7.00"
- structure_string: "COC(=O)c1ccccc1Sc1cnc(N2CCC3(CCC[C@H]3N)CC2)n2cnnc12"
  recorded_endpoint: "pIC50"
  assay_value: "5.00 to 6.00"
- structure_string: "N[C@@H]1CCCC12CCN(c1ncc(Sc3ccnc(Cl)c3Cl)c3nccn13)CC2"
  recorded_endpoint: "pIC50"
  assay_value: "> 7.00"
- structure_string: "NCC1CCN(c2ncc(Sc3cccc(Cl)c3Cl)c3nccn23)CC1"
  recorded_endpoint: "pIC50"
  assay_value: "6.00 to 7.00"
- structure_string: "N[C@@H]1CCCC12CCN(c1ncc(Sc3ccncc3Cl)c3nccn13)CC2"
  recorded_endpoint: "pIC50"
  assay_value: "6.00 to 7.00"

What does the data say about its pIC50? Entry: C[C@@H]1OCC2(CCN(c3ncc(Sc4cccc(Cl)c4Cl)c4nncn34)CC2)[C@@H]1N
> 7.00

// next record C[C@@H]1OCC2(CCN(c3ncc(Sc4ccnc(N)c4Cl)c4nncn34)CC2)[C@@H]1N
> 7.00

// next record N[C@@H]1CCCC12CCN(c1ncc(Sc3cccnc3C(F)(F)F)c3nncn13)CC2
6.00 to 7.00

// next record Cc1nc(N)cc(Sc2cnc(N3CCC4(CC3)CO[C@@H](C)[C@H]4N)n3ccnc23)c1Cl
> 7.00

// next record N[C@@H]1CCCN(c2ncc(Sc3cccc(Cl)c3Cl)c3nccn23)CC1
6.00 to 7.00

====

# Test system: MOLM-13 cells
# experiment: MOLM-13 cell proliferation experiment
# Type: cell-based
# particulars: Homo sapiens, MOLM-13, 72 h, MOLM-13 cell proliferation, 3 days, Tables 3.1 and 3.2; read-out: IC50
recorded_endpoint: IC50

The cases that follow already have their IC50 on record.
- compound: "Nc1cc(Sc2cnc(N3CCC4(CC3)COC[C@H]4N)n3ccnc23)c(Cl)c(Cl)n1"
  IC50: "< 100 nM"
- compound: "CC1C[C@@H](N)C2(CCN(c3ncc(Sc4cccc(Cl)c4Cl)c4nccn34)CC2)C1 (stereo partly drawn)"
  IC50: "100 to 1000 nM"
- compound: "Nc1cc(Sc2cnc(N3CCC4(CC3)CC(F)(F)C[C@H]4N)n3ccnc23)c(Cl)c(Cl)n1"
  IC50: "100 to 1000 nM"
- compound: "C[C@@H]1OCC2(CCN(c3ncc(Sc4cccc(Cl)c4Cl)c4nccn34)CC2)[C@@H]1N"
  IC50: "< 100 nM"
- compound: "C[C@@H]1OCC2(CCN(c3ncc(Sc4ccnc(N)c4Cl)c4nccn34)CC2)[C@@H]1N"
  IC50: "< 100 nM"

Report IC50 for N[C@@H]1CCCN(c2ncc(Sc3cccc(Cl)c3Cl)c3nncn23)CC1 tested on MOLM-13 cells.
1000 to 10000 nM

// next record N[C@@H]1CCCC12CCN(c1ncc(Sc3cccc4ccccc34)c3nccn13)CC2
100 to 1000 nM

// next record N[C@@H]1CCCC12CCN(c1ncc(Sc3cccnc3C(F)(F)F)c3nccn13)CC2
100 to 1000 nM

// next record Nc1nccc(Sc2cnc(N3CCC4(CCC[C@H]4N)CC3)n3ncnc23)c1Cl
100 to 1000 nM
